Items are presented alongside their recorded IC50.
Biological target: Hormone-sensitive lipase (HSL) (Homo sapiens, UniProt Q05469)
Sequence (Q05469 whole entry): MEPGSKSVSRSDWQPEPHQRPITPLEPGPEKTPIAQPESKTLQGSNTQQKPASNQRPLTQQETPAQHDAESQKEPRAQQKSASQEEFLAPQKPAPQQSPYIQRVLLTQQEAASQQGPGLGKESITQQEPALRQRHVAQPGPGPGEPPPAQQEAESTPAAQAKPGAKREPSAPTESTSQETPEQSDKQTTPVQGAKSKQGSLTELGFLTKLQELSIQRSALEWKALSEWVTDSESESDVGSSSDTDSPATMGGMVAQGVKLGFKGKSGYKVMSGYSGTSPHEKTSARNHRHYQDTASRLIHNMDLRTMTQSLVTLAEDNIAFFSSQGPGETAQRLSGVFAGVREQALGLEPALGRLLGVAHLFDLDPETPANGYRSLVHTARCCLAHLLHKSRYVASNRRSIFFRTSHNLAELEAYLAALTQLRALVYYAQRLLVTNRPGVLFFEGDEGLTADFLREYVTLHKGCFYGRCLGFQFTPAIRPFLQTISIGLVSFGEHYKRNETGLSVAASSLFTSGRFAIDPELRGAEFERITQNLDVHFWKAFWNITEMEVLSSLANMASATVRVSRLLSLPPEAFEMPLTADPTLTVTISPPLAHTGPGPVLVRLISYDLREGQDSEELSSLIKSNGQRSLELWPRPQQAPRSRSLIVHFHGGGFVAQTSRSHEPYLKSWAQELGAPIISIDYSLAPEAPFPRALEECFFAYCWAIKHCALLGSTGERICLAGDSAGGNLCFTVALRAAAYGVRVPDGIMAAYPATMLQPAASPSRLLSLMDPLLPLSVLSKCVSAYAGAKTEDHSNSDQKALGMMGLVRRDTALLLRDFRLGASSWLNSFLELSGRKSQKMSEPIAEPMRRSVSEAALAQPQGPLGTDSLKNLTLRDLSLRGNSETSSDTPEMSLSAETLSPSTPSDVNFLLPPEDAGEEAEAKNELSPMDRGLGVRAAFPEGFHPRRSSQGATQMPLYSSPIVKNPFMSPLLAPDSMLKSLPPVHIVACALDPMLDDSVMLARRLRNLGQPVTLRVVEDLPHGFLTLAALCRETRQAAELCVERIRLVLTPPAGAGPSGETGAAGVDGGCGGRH
Test: Hormone-sensitive lipase (HSL) inhibition assay, 3H-labeled triolein or MOME substrate
Assay type: biochemical
Details: read-out: HSL inhibition (IC50)
Kindly answer with a numeric value in µM, unit omitted.

[
  {
    "structure.string": "O=C(NN1CCc2ccccc2C1)Oc1ccc(F)cc1",
    "IC50 (µM)": 0.46
  }
]

Identify the measured IC50 of "O=C(NN1CCc2ccccc2C1)Oc1ccc(Oc2ccccc2)cc1" for Hormone-sensitive lipase (HSL) (Homo sapiens, UniProt Q05469).
0.33

Identify the measured IC50 of "COC(=O)c1ccc(OC(=O)NN2CCc3ccccc3C2)cc1" for Hormone-sensitive lipase (HSL) (Homo sapiens, UniProt Q05469).
9.9

Identify the measured IC50 of "CCCCOc1ccc(OC(=O)NN2CCc3ccccc3C2)cc1" for Hormone-sensitive lipase (HSL) (Homo sapiens, UniProt Q05469).
3.8
